# System: NCI-H23 lung
# experiment.notes: NCI-60 one-dose screen, 48 h (100 = growth as untreated, 0 = no growth, -100 = all killed)
# test.settings: 10 µM unless noted
The panel holds about 83,000 compounds, 20% with a hit somewhere; the sample as a whole holds those more often.
Label met when growth is at or above 80%; anything below gets not met.

Examples from the recorded data:
Decide: is the reported value of growth for "O=C(N/N=C/c1cccnc1)c1ccccc1Nc1cccc(C(F)(F)F)c1" equal to or greater than 80%?
met

Decide: is the reported value of growth for Cc1ccc(C2CC(c3cccc(Nc4ccncc4)c3)=NN2c2cc(Cl)cc(Cl)c2)cc1 (centres undefined) equal to or greater than 80%?
not met

Decide: is the reported value of growth for CCOC(=O)C1CC(=O)c2cc(OC)c(OC)cc2C1 (centres undefined) equal to or greater than 80%?
met

Decide: is the reported value of growth for "O=C(CCN1CCCC1)Nc1ccc2c(Nc3ccccc3)c3ccccc3nc2c1" equal to or greater than 80%?
not met

Decide: is the reported value of growth for "O=C(CN1CCOCC1)Nc1ccc2ncnc(Nc3ccc(OCc4cccc(F)c4)c(Cl)c3)c2c1" equal to or greater than 80%?
met

Decide: is the reported value of growth for "CN1CCN(C(=O)[C@]2(C)CC[C@]3(C)CC[C@]4(C)C(=CC(=O)[C@@H]5[C@@]6(C)CCC(=O)NC(C)(C)[C@@H]6CC[C@]54C)[C@@H]3C2)CC1" equal to or greater than 80%?
met

Continuing:
Decide: is the reported value of growth for "COc1cccc(NC(=O)c2cccc(-c3cc(=O)c4c(OC)c(OC)c(OC)cc4o3)c2)c1" equal to or greater than 80%?
not met

Decide: is the reported value of growth for CCCCCCC/C=C/[C@H]1O[C@]2(O)C(=O)C=C3C[C@@H](O[C@@H]4O[C@H](CO)[C@@H](O)C(O)[C@@H]4O)C[C@@H]3[C@H]2C=C1C (some centres undefined) equal to or greater than 80%?
not met

Decide: is the reported value of growth for "COc1ccc(/C=C(/c2ccccc2)[N+](=O)[O-])cc1" equal to or greater than 80%?
not met

Decide: is the reported value of growth for "COc1ccc(-c2cnnc3c(-c4cccc(C(F)(F)F)c4)cnn23)cc1" equal to or greater than 80%?
not met

Decide: is the reported value of growth for "O=C1CCCN1c1cccc2cccnc12" equal to or greater than 80%?
met

Decide: is the reported value of growth for "COc1cc(-c2nc3occn3c2-c2ccnc(NCCNS(=O)(=O)c3ccc(Cl)cc3)n2)ccc1F" equal to or greater than 80%?
met

====

# Test system: SK-OV-3 ovarian
# experiment.notes: NCI-60 one-dose screen, 48 h (100 = growth as untreated, 0 = no growth, -100 = all killed)
# test.settings: 10 µM unless noted
The panel holds about 83,000 compounds, 20% with a hit somewhere; the sample as a whole holds those more often. Activity calls are given as the source filed them. The calls were made as follows: active = growth percent below 10; inactive = the rest.
Below, each of the compounds is paired with its reported growth value.

Reported growth, compound "Cc1cc2cc3cc(C)c(N)cc3[n+](C)c2cc1N" : ____
26% (inactive)

Reported growth, compound "O=C(CSc1nc2sc3c(c2c(=O)n1Cc1ccccc1)CCCC3)N1CCN(c2ccccc2)CC1" : ____
92.1% (inactive)

Reported growth, compound "Cn1/c(=N/NC(N)=S)ccc2ccccc21" : ____
107% (inactive)

Continuing:
Reported growth, compound CC(C)Cc1ccc(C(C)C(=O)NCc2c[nH]c3ccc(Cl)cc23)cc1 (stereo unspecified) : ____
98.9% (inactive)

Reported growth, compound "Cc1cc(C)n(Nc2nc3ccccc3[nH]c2=O)c(=O)c1C#N" : ____
96.9% (inactive)

Reported growth, compound COc1cc(C2CC(c3cccc(Nc4ccncc4)c3)=NN2c2cc(Cl)cc(Cl)c2)cc(OC)c1OC (stereo unspecified) : ____
76.2% (inactive)

Reported growth, compound "CN1CCN(CC#CCNC(=O)[C@]23CCC(C)(C)C[C@H]2C2=CC[C@@H]4[C@@]5(C)Cc6c([nH]c7ccccc67)C(C)(C)[C@@H]5CC[C@@]4(C)[C@]2(C)CC3)CC1" : ____
87.1% (inactive)

Reported growth, compound "COc1ccc(-c2nc(N/N=C/c3cccc(O)c3)nc(N3CCOCC3)c2C#N)cc1" : ____
104% (inactive)

Reported growth, compound "O=C1CCCN1c1cccc2cccnc12" : ____
114% (inactive)

Reported growth, compound "CC(C)(C)OC(=O)N1CCN(c2ccc(N)cc2)C(=O)C1" : ____
109% (inactive)

Reported growth, compound "CC(C)(C#N)N1CCN(c2ccccc2Cl)CC1" : ____
103% (inactive)

====

# System: SF-268 CNS
# experiment.notes: NCI-60 one-dose screen, 48 h (100 = growth as untreated, 0 = no growth, -100 = all killed)
# test.settings: 10 µM unless noted
Compounds without any hit were thinned out: in the full panel of roughly 83,000, 20% have a hit.
Label label 1 when growth is at or above 90%; anything below gets label 0.

Examples from the recorded data:
Decide: is the reported value of growth for "O=S(=O)(NCCCNc1nccc(-c2c(-c3cccc(O)c3)nc3occn23)n1)c1ccc(F)cc1" equal to or greater than 90%?
label 0

Decide: is the reported value of growth for COc1cc(C2NC(c3cc(OC)c(OC)c(OC)c3)C(C#N)(C#N)C2(C#N)C#N)cc(OC)c1OC (centres undefined) equal to or greater than 90%?
label 1

Continuing:
Decide: is the reported value of growth for "O=S(=O)(c1ccccc1)N1CCCc2ccccc21" equal to or greater than 90%?
label 1

Decide: is the reported value of growth for "CC(=O)OCCCCCNc1ccccc1" equal to or greater than 90%?
label 1

Decide: is the reported value of growth for "COc1ccc(CNC(=O)COc2ccc(/C=N/Nc3nc4ccccc4s3)cc2)cc1" equal to or greater than 90%?
label 0

Decide: is the reported value of growth for "Cc1[nH]c(C(=O)Nc2ccccc2OCc2cccc(C(=O)NCCN)c2)c(Cl)c1Cl" equal to or greater than 90%?
label 0

Decide: is the reported value of growth for "COc1ccc(NC(=O)c2sc3nc(C)c(C(=O)c4ccc(OC)cc4)cc3c2N)cc1" equal to or greater than 90%?
label 0

Decide: is the reported value of growth for "c1ccc(-c2nnc(Nc3ccc4c(c3)OCCO4)o2)c(NCc2ccncc2)c1" equal to or greater than 90%?
label 0

====

# Test system: ACHN renal
# experiment.notes: NCI-60 one-dose screen, 48 h (100 = growth as untreated, 0 = no growth, -100 = all killed)
# test.settings: 10 µM unless noted
Compounds without any hit were thinned out: in the full panel of roughly 83,000, 20% have a hit.
Label Yes when growth is at or above 20%; anything below gets No.

Decide: is the reported value of growth for "O=C1Nc2cc(-c3ccncc3)ccc2/C1=C/c1ccc[nH]1" equal to or greater than 20%?
Yes

Decide: is the reported value of growth for "COc1cc(C(=O)c2cnc(-c3ccc4cc[nH]c4c3)[nH]2)cc(OC)c1OC" equal to or greater than 20%?
No

Decide: is the reported value of growth for "Nc1ccccc1NC(=O)c1ccc(CN2CCC/C(=C\c3cccc(Cl)c3)C2=O)cc1" equal to or greater than 20%?
No

Decide: is the reported value of growth for "CCOC(=O)c1ccc(Nc2ccnc(SCC(=O)c3ccc(C#N)cc3)n2)cc1" equal to or greater than 20%?
Yes

Decide: is the reported value of growth for "CCn1ccnc1C(=O)/C=C/c1ccc(CC(=O)Nc2ccc(F)cc2)cc1" equal to or greater than 20%?
Yes

====

# Tested on: 786-0 renal
# experiment.notes: NCI-60 one-dose screen, 48 h (100 = growth as untreated, 0 = no growth, -100 = all killed)
# test.settings: 10 µM unless noted
# Experimental: Cells are grown in 96 well plates and exposed to the test compound for 48 hours. Compounds are tested at a single concentration, which is 10^-5 M for most compounds. The reported endpoint is percent growth (GI% or GIPRCNT), where numbers from 0 - 100% represent growth inhibition, and numbers from -100% - 0 represent cell death. For example, a value of 40 represents 60% growth inhibition. A value of 0 means no net growth occurred over the course of the experiment. […]
This is part of a sample that, as a whole, favours compounds with a hit. Of some 83,000 tested, about 20% had one in any assay.
Below, each of the molecules is paired with its reported growth value.
Give the value, in units of %, as a plain number.

Reported growth, molecule "COc1cccc(CNCCN2C(=O)c3ccc4c5c(ccc(c35)C2=O)C(=O)N(CCNCc2cccc(OC)c2)C4=O)c1" : ____
81

Reported growth, molecule "Cc1nc2sc(C(=O)Nc3ccccc3)c(N)c2cc1C(=O)c1ccc(C(F)(F)F)cc1" : ____
95.3

Reported growth, molecule "CCNC(=S)NNC(=O)c1cc2ccc1CCc1ccc(cc1)CC2" : ____
106

Reported growth, molecule "CC(C)[N+](C)(CCOC(COc1ccccc1)COc1ccccc1)C(C)C" : ____
102

Turning now to a further molecule:
Reported growth, molecule "CCN(CC)S(=O)(=O)c1cccc([N+](=O)[O-])c1" : ____
89.4
